Measured IC50 of individual entries
# TARGET_ENTITY: HLA-A*0202 (Homo sapiens, UniProt P04439, D140Y/D185E/D98H/E176V/E277Q/G131W/G231S/I119L/I121R/I166T/I218V/L180W/L300P/L318F/N151K/N90K/P208A/P217A/Q67R/Q86G/Q94H/R138H/R169H/T345S)
# PROTOCOL: purified HLA class I binding assay, A*0202
No end group written: not given here.
Report only the number, with the unit µM understood.

Field: example entries. Status: answers known.
{"ITEM_SEQUENCE": "FLGAAGSTM [1211.05]", "IC50 [µM]": 3.58}
{"ITEM_SEQUENCE": "WMTNNPPIPV [25.0139]", "IC50 [µM]": 3.07}

Qu. Recorded IC50 of KLNWASQIYA [25.0161] , please.
Ans. 3.91

Qu. Need IC50, item LLWKGEGAVV [1069.33]
Ans. 0.632

----------
# TARGET_ENTITY: HLA-A*0201 (Homo sapiens, UniProt P04439, D140Y/D185E/D98H/E176V/E277Q/G131W/G231S/I119V/I121R/I166T/I218V/L300P/L318F/N151K/N90K/P208A/P217A/Q86G/Q94H/R138H/R169H/T345S)
# PROTOCOL: purified HLA class I binding assay, A*0201
# CONDITION_SET: HIV A02 Super Motif Peptides with Binding Information, Table VIII; unit not given
MEASUREMENT_NAME: A*0201 (binding information)

{"ITEM_SEQUENCE": "QMIIEDIISL", "A*0201 (binding information)": 0.0023}

Qu. Could you share which A*0201 (binding information) value was measured for `CVKLTPLCV` ?
Ans. 0.0002

Qu. A*0201 (binding information) lookup needed for `WATIIACVPT` , thanks.
Ans. 0.0002

----------
# TARGET_ENTITY: HLA-A*0301 (Homo sapiens)
# Construct: endogenous in cells; host or cells: GM3107
# PROTOCOL: purified HLA class I binding assay, A*0301
# CONDITION_SET: HIV A03 motif peptides, Table XVI; binding value unit not given
Parameter: A0301 (binding information). Scope: all listed entries.
Note: the reply should be a number with no unit written.

{"ITEM_SEQUENCE": "QMVIIQAISPR", "TARGET_ENTITY": "HLA-A*0301 (Homo sapiens)", "MEASURED_NUMBER": 0.0260}
{"ITEM_SEQUENCE": "KIWPSIIKGR", "TARGET_ENTITY": "HLA-A*0301 (Homo sapiens)", "MEASURED_NUMBER": 0.0770}
{"ITEM_SEQUENCE": "FLGKIWPSIIK", "TARGET_ENTITY": "HLA-A*0301 (Homo sapiens)", "MEASURED_NUMBER": 0.0200}
{"ITEM_SEQUENCE": "MVIIQAISPR", "TARGET_ENTITY": "HLA-A*0301 (Homo sapiens)", "MEASURED_NUMBER": 0.1800}

For the next question, use this sequence.
Qu. Query the reported A0301 (binding information) for HLA-A*0301 (Homo sapiens); item: `TACQGVGGPG`
Ans. 0.0001

----------
# TARGET_ENTITY: HLA-DRB1*0401 (DR4w4) (Homo sapiens, UniProt P01903+P01911, A100K/A169T/F76Y/I96L/K127E/L162R/M171V/N62H/P40V/Q125Y/R42H/S133A/S149N/S66Y/V115G/V209L/W38E)
# Construct: endogenous in cells; host or cells: Preiss
# Sequence (P01903 26-254 partner, other chains not shown): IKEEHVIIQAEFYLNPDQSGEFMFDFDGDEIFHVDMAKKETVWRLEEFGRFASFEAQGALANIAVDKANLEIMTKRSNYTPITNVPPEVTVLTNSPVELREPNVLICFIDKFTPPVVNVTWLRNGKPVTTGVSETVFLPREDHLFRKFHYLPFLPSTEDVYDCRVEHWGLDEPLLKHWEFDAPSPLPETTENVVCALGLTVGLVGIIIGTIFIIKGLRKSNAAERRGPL
# PROTOCOL: purified HLA class II binding assay, DRB1*0401 (DR4w4)
No end group written: not given here.
MEASUREMENT_NAME: pIC50
Here pIC50 is given on a logarithmic scale as minus log10 of the concentration in mol/L.

Qu. Tell me the measured pIC50 of HSNWRAMASDFNLPP [Peptide 27.0364] , please.
Ans. 7.96

----------
# TARGET_ENTITY: HLA-DRB1*0701 (DR7) (Homo sapiens, UniProt P01903+P01911, A100R/A102G/A103Q/D57E/D86V/E43K/F76Y/K127E/L162R/M171V/P40G/Q125H/Q99D/R33Q/R42Y/R54Q/S133A/S66F/T210M/V115G/Y107V/Y59L/Y89S)
# Construct: endogenous in cells; host or cells: Pitout
# PROTOCOL: biochemical
# Assay type: binding
Reported DR7 binding information values for a set of sequences
The reply should be a number, written without any unit.

# example entries with known answers
{"ITEM_SEQUENCE": "IKQEFGIPY", "MEASUREMENT_NAME": "DR7 binding information", "MEASURED_NUMBER": "−0.0014"}
{"ITEM_SEQUENCE": "ILRQRKTDR", "MEASUREMENT_NAME": "DR7 binding information", "MEASURED_NUMBER": "−0.0014"}
{"ITEM_SEQUENCE": "FSPEVIPMF", "MEASUREMENT_NAME": "DR7 binding information", "MEASURED_NUMBER": 0.0023}

Qu. Please give the measured DR7 binding information for this sequence: `IKKEKVYLA`
Ans. −0.0005

Qu. Please give the measured DR7 binding information for this sequence: `VVEEKAFSP`
Ans. 0.0003

----------
# TARGET_ENTITY: HLA-DRB1*0401 (DR4w4) (Homo sapiens, UniProt P01903+P01911, A100K/A169T/F76Y/I96L/K127E/L162R/M171V/N62H/P40V/Q125Y/R42H/S133A/S149N/S66Y/V115G/V209L/W38E)
# Construct: endogenous in cells; host or cells: Preiss
# PROTOCOL: purified HLA class II binding assay, DRB1*0401 (DR4w4)
# CONDITION_SET: HIV DR super motif peptides; unit not given
MEASUREMENT_NAME: DR4w4 binding
The answer should be a number; do not append a unit.

Known DR4w4 binding results, listed for orientation:
{"ITEM_SEQUENCE": "NNLLRAIEAQQIILLQ", "DR4w4 binding": 0.0150}
{"ITEM_SEQUENCE": "ASGYIEAEVIPAFTG", "DR4w4 binding": 0.2300}
{"ITEM_SEQUENCE": "VIFMFSALSEGATPQ", "DR4w4 binding": 0.0058}

Qu. Name the reported DR4w4 binding value associated with the sequence `QQHLLQLTVWGTKQL`
Ans. 0.0330

Qu. I'd like to know its DR4w4 binding. The sequence in question is `VTVYYGVPVWKEATI`
Ans. 0.0071

Qu. Would you mind telling me what DR4w4 binding value was observed for `SPEVIFMFSALSEGA` ?
Ans. 0.1600

----------
# IC50 listing for each entry below
# TARGET_ENTITY: HLA-A*0203 (Homo sapiens, UniProt P04439, A173T/D140Y/D185E/D98H/E277Q/G131W/G231S/I119V/I121R/I166T/I218V/L180W/L300P/L318F/N151K/N90K/P208A/P217A/Q86G/Q94H/R138H/R169H/T345S)
# PROTOCOL: purified HLA class I binding assay, A*0203
No end group written: not given here.
The reply should contain only the number, in nM.

Observe how each entry below is paired with its result.
{"ITEM_SEQUENCE": "WMTNNPPIPV [25.0139]", "IC50, nM": 16.9}
{"ITEM_SEQUENCE": "FLQSRPEPT [25.0037]", "IC50, nM": 32.3}
{"ITEM_SEQUENCE": "KLNWASQIYA [25.0161]", "IC50, nM": 400}
{"ITEM_SEQUENCE": "FLGAAGSTM [1211.05]", "IC50, nM": 1.5}

Consider now this further sequence.
Qu. Returns the measured IC50 for the input sequence. Input: LLWKGEGAVV [1069.33]
Ans. 25

----------
# TARGET_ENTITY: HLA-A*6802 (Homo sapiens, UniProt P04439, A269V/D140Y/D185E/E176V/E277Q/E87N/F33Y/G231S/I121R/I166T/I218V/L180W/L300P/L318F/N151K/P208A/P217A/Q86R/R138H/R169H/S129P/T345S/V36M)
# PROTOCOL: purified HLA class I binding assay, A*6802
pIC50: −log10 of the molar value.
Respond with YES for pIC50 values of 7 and above, NO for values below.

Study these solved cases before continuing.
{"COMPOUND": "CC(C)C[C@H](NC(=O)[C@H](CCCCN)NC(=O)[C@H](Cc1ccccc1)NC(=O)[C@H](CS)NC(=O)[C@H](Cc1c[nH]c2ccccc12)NC(=O)CNC(=O)[C@H](Cc1ccccc1)NC(=O)[C@@H](NC(=O)[C@H](CC(C)C)NC(=O)[C@@H]1CCCN1)[C@@H](C)O)C(=O)O", "CLASS_LABEL": "YES"}
{"COMPOUND": "CC[C@H](C)[C@H](NC(=O)[C@H](C)N)C(=O)N[C@H](C(=O)N[C@@H](CCCNC(=N)N)C(=O)N[C@H](C(=O)N[C@@H](CC(C)C)C(=O)N[C@@H](CCC(N)=O)C(=O)N[C@@H](CCC(N)=O)C(=O)N[C@@H](CC(C)C)C(=O)O)[C@@H](C)CC)[C@@H](C)CC [Peptide 1261.11]", "CLASS_LABEL": "NO"}
{"COMPOUND": "CSCC[C@H](N)C(=O)N[C@@H](C)C(=O)N[C@@H](CO)C(=O)N[C@@H](CC(=O)O)C(=O)N[C@@H](Cc1ccccc1)C(=O)N[C@@H](CC(N)=O)C(=O)N[C@@H](CC(C)C)C(=O)N1CCC[C@H]1C(=O)N1CCC[C@H]1C(=O)N[C@H](C(=O)O)C(C)C [Peptide 1261.15]", "CLASS_LABEL": "YES"}

Qu. Confirm if pIC50 reported for the compound CC[C@H](C)[C@H](NC(=O)CNC(=O)[C@H](Cc1c[nH]c2ccccc12)NC(=O)[C@@H](NC(=O)[C@@H](NC(=O)[C@H](CC(C)C)NC(=O)[C@H](CCC(N)=O)NC(=O)[C@H](CC(C)C)NC(=O)[C@@H](N)CC(C)C)[C@@H](C)O)C(C)C)C(=O)O [Peptide 1261.02] is 7 or above.
Ans. NO

Qu. Determine whether this compound has pIC50 no lower than 7: CC(C)C[C@H](NC(=O)[C@H](CCCCN)NC(=O)[C@H](Cc1ccccc1)NC(=O)[C@H](CS)NC(=O)[C@H](Cc1c[nH]c2ccccc12)NC(=O)CNC(=O)[C@H](Cc1ccccc1)NC(=O)[C@@H](NC(=O)[C@@H](N)CC(C)C)[C@@H](C)O)C(=O)O [Peptide 1261.04]
Ans. YES

Qu. Please check the record CC(C)C[C@H](NC(=O)[C@H](CCCCN)NC(=O)[C@H](Cc1ccccc1)NC(=O)[C@H](CS)NC(=O)[C@H](Cc1c[nH]c2ccccc12)NC(=O)CNC(=O)[C@H](Cc1ccccc1)NC(=O)[C@@H](NC(=O)[C@@H](N)CC(C)C)[C@@H](C)O)C(=O)N[C@H](C(=O)O)C(C)C [Peptide 1261.14] and state if its pIC50 is at or above 7.
Ans. YES
